# targetDesc: Short transient receptor potential channel 4 (Mus musculus) (UniProt Q9QUQ5)
# Sequence (Q9QUQ5 whole entry, looked up): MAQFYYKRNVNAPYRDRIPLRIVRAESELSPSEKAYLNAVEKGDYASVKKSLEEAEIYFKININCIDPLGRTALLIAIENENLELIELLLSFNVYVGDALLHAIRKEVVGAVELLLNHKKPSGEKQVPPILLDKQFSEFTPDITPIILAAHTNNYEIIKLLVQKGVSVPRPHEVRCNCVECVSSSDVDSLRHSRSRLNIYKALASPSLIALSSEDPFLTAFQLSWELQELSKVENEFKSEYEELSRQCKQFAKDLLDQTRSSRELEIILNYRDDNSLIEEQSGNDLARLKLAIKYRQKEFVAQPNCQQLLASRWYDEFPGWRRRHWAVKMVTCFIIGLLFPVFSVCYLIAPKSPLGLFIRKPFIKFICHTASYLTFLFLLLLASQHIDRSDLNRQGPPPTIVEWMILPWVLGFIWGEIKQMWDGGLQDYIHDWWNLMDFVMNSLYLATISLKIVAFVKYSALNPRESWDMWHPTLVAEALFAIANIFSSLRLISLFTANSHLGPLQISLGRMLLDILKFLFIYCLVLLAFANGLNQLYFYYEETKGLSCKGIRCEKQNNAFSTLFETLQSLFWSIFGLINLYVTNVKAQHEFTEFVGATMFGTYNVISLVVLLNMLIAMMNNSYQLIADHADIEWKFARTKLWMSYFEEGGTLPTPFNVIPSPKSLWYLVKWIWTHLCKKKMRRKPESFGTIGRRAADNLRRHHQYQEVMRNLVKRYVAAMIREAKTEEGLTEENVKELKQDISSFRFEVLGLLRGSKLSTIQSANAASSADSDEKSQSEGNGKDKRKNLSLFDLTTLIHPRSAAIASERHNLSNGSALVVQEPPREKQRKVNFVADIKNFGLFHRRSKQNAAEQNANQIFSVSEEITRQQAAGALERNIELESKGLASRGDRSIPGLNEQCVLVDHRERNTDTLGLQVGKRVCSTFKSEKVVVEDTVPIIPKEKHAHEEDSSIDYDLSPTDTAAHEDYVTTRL
# measurementNotes: blockers of DAMGO-evoked TRPC4 calcium flux – cell-based, Fluo4, HEK293 TRPC4beta/mu-opioid, confirmation (AID 2636)
# runParameters: at 10 µM
Calls of active or inactive are those of the source.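 How the source made its calls: active means calcium signal cut by more than 3 SD below the full-agonist control yet still positive, in both repeats and the earlier primary screen; inactive means the rest.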
Classes used: class 1 = active, class 0 = inactive

In [3]: df
Out[3]:
                                   molecule                                targetdesc  classification
0         CCCCc1nc(N2CCOCC2)c(C#N)c2c1CCCC2  Short transient receptor potential channel 4 (Mus musculus) (UniProt Q9QUQ5)         class 0
1  Cc1ccc(NC(=O)CN2CCc3ccccc3C2)cc1S(=O)(=O)N1CCOCC1  Short transient receptor potential channel 4 (Mus musculus) (UniProt Q9QUQ5)         class 1
2  CN(CC(=O)Nc1sc2c(c1C#N)CCCCC2)Cc1nc2ccccc2c(=O)[nH]1  Short transient receptor potential channel 4 (Mus musculus) (UniProt Q9QUQ5)         class 0
3  COc1cc2c(C(=O)N3CCN(C)CC3)c(CSc3ccccc3)n(C)c2cc1Br  Short transient receptor potential channel 4 (Mus musculus) (UniProt Q9QUQ5)         class 0
4  N=c1c(C(=O)NCC2CCCO2)cc2c(=O)n3ccccc3nc2n1Cc1ccc(Cl)cc1 (stereo unspecified)  Short transient receptor potential channel 4 (Mus musculus) (UniProt Q9QUQ5)         class 0
5  Cc1ccc(S(=O)(=O)N2CCC(N3CCN(C)CC3)CC2)cc1Cl  Short transient receptor potential channel 4 (Mus musculus) (UniProt Q9QUQ5)         class 0
